Catalogue of compounds with associated pIC50
# experimentalSystem: EGFR wt (Homo sapiens (Human), UniProt P00533)
# Sequence (P00533 25-1210): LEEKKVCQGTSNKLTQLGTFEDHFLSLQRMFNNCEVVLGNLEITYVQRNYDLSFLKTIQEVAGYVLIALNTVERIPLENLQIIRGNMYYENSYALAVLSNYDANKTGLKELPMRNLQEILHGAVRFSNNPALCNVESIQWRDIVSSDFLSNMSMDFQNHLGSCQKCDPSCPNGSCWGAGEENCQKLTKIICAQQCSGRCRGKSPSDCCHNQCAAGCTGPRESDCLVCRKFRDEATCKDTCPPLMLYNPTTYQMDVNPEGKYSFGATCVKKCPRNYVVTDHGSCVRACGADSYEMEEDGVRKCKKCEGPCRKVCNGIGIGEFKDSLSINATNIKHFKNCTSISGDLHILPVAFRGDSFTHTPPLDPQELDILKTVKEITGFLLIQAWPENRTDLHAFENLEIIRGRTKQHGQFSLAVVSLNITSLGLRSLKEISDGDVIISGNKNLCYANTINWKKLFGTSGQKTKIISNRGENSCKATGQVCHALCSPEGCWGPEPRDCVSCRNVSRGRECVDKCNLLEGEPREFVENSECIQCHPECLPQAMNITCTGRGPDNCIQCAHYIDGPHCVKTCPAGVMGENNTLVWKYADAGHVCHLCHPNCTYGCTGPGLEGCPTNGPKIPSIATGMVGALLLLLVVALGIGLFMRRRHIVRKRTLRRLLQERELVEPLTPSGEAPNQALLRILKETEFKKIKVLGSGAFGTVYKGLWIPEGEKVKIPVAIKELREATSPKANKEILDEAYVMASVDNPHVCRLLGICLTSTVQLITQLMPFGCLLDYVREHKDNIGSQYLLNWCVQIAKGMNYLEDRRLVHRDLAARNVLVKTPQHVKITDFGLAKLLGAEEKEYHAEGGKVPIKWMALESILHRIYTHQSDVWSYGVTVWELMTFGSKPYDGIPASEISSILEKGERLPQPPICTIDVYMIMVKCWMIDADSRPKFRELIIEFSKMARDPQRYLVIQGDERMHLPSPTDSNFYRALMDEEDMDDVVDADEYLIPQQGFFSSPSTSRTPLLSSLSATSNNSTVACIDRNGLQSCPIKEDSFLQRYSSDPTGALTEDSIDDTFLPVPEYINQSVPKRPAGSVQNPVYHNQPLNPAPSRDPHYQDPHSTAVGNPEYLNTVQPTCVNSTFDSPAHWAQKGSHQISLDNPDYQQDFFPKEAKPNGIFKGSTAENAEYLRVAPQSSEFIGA
# experiment: Biochemical EGFR inhibition assay (TR-FRET, poly-GT substrate), EGFR wt
# testSettings: read-out: wt (100 μM ATP) IC50; 100 μM ATP
# Protocol: Biochemical EGFR Inhibition Assays Initially, the inhibitory effect of compounds according to the invention is measured in biochemical assays which measure the phosphorylation activity of EGFR enzyme forms on poly-GT substrate in the presence of different concentrations of ATP (5 μM and 100 μM final assay concentration). […] These biochemical EGFR enzyme form compound dose-response assays quantify the kinase activity via phosphorylation of a tagged poly-GT substrate. […]
As a rule, pIC50 stands for the negative log10 of the concentration, concentration in M.

Examples with answers:
smilesStr	pIC50
Cc1nn(C)cc1-c1cc(C(=O)/N=c2\[nH]c3ccccc3n2C2CCCC2)ccn1	6.63
Cn1cc(-c2cc(C(=O)/N=c3\[nH]c4cc(C5CCN(C6CC6)CC5)ccc4n3CC(C)(C)O)ccn2)cn1	4.84
Cc1ccc2[nH]/c(=N\C(=O)c3ccnc(-c4cnn(C)c4)c3)n(CC(C)(C)O)c2c1	5.40
Cc1ccc2c(c1)[nH]/c(=N\C(=O)c1ccnc(-c3cccc(CN(C)C)c3)c1)n2[C@H]1CC[C@@H](O)CC1	5.15
Cc1c(-c2cc(C(=O)/N=c3\[nH]c4ccccc4n3C3CCCC3)ccn2)cnn1C	5.71

The reported value for `Cc1ccc2c(c1)[nH]/c(=N\C(=O)c1ccnc(-c3cnn(C)c3)c1)n2CC(C)(C)O` in terms of pIC50 is 5.02

The reported value for `COC(=O)Cc1ccc2c(c1)[nH]/c(=N\C(=O)c1ccnc(-c3cnn(C)c3)c1)n2CC(C)(C)O` in terms of pIC50 is 4.58

The reported value for `Cc1c(-c2cc(C(=O)/N=c3\[nH]c4cc(N5CCN(C)CC5)ccc4n3CC(C)(C)O)ccn2)cnn1C` in terms of pIC50 is 5.10

The reported value for `CC(=O)N1CCC(c2ccc3c(c2)[nH]/c(=N\C(=O)c2ccnc(-c4cnn(C)c4C)c2)n3CC(C)(C)O)CC1` in terms of pIC50 is 5.94

###

# experimentalSystem: EGFR (mutated) 695-1022, T790M, C797S, L858R (Homo sapiens (Human), UniProt P00533, C797S/L858R/T790M)
# Sequence (P00533 695-1022 T790M/C797S/L858R): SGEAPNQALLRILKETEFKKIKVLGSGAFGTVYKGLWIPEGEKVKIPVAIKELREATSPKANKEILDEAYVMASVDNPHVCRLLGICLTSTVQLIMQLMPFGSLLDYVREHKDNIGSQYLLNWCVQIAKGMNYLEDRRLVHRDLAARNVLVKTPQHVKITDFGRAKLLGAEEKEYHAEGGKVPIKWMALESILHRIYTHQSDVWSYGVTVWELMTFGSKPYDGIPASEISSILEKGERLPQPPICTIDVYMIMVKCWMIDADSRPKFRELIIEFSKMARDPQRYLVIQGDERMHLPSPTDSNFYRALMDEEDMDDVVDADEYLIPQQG
# experiment: Biochemical EGFR inhibition assay (TR-FRET, poly-GT substrate), EGFR T790M C797S L858R
# testSettings: read-out: LR_TM_CS (5 μM ATP) IC50; 5 μM ATP
metricName: pIC50
As a rule, pIC50 stands for the negative log10 of the concentration, concentration in M.

Examples with answers:
compound	pIC50
Cn1cc(-c2cc(C(=O)/N=c3\[nH]c4ccccc4n3[C@H]3CC[C@@H](O)CC3)ccn2)cn1	9.40
Cn1cc(-c2cc(C(=O)/N=c3\[nH]c4ccccc4n3[C@H]3CC[C@@H](O)CC3)cc(Cl)n2)cn1	8.55
Cn1cc(-c2cc(C(=O)/N=c3\[nH]c4ccccc4n3[C@H]3CCC[C@@H](O)C3)ccn2)cn1 [I-112]	8.51

Turning now to a further record.
The reported value for `COc1ccccc1-c1cc(C(=O)/N=c2\[nH]c3ccccc3n2[C@H]2CC[C@H](O)[C@H](O)C2)ccn1` in terms of pIC50 is 8.07

###

Catalogue of compounds with associated IC50
# experimentalSystem: EGFR del19 T790M C797S protein in Ba/F3 cells (Homo sapiens, UniProt P00533, C797S/DEL746-750/T790M)
# Sequence (P00533 with tags, fused parts or gaps C797S/DEL746-750/T790M limits assumed): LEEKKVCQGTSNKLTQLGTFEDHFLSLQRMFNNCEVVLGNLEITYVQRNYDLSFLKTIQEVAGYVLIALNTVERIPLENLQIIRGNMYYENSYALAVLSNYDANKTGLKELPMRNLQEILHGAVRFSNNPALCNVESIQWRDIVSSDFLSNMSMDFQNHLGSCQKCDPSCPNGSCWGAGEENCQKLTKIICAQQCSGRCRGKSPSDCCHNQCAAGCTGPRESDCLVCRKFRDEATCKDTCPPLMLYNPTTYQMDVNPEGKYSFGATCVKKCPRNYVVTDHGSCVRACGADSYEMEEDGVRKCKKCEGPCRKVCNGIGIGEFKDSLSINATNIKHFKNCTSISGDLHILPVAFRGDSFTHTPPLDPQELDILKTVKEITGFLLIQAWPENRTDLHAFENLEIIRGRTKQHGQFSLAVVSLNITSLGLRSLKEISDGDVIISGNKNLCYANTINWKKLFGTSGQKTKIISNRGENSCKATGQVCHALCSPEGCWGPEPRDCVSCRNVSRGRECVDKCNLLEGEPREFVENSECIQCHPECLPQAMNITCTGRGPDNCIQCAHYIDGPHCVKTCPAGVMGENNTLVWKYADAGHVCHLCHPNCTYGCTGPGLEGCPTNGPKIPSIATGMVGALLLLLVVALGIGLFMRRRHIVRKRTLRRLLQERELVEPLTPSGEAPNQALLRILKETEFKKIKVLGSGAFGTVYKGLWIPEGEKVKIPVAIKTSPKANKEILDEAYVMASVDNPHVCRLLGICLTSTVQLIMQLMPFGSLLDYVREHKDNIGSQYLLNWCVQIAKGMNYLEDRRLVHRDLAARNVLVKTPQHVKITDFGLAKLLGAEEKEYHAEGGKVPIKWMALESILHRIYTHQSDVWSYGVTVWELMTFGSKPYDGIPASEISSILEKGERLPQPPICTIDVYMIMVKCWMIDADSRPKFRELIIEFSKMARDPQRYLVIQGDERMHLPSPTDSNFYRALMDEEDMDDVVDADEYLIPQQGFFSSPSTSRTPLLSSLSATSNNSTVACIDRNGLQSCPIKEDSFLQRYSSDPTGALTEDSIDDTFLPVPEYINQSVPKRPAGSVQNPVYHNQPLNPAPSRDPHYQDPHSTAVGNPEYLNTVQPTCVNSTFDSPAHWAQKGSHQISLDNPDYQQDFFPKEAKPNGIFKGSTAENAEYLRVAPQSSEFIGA
# experiment: pEGFR assay (AlphaScreen Surefire, EGFR Tyr1068 phosphorylation)
Express the result in nM but write the number alone.

Examples with answers:
smilesStr	metricName	numericValue
CN(C)Cc1cccc(-c2cc(C(=O)/N=c3\[nH]c4ccccc4n3[C@H]3CC[C@@H](O)CC3)ccn2)c1	IC50	2
O=C(/N=c1\[nH]c2ccccc2n1[C@H]1CC[C@@H](O)CC1)c1ccnc(-c2cnn3cccnc23)c1	IC50	1
O=C(/N=c1\[nH]c2ccccc2n1C1CCCC1)c1ccnc(-c2cccnc2)c1	IC50	9
CNC(=O)c1cccc(-c2cc(C(=O)/N=c3\[nH]c4ccccc4n3CC(C)(C)O)ccn2)c1	IC50	76
CC(C)(O)Cn1/c(=N/C(=O)c2ccnc(-c3cccc4ccnn34)c2)[nH]c2ccccc21	IC50	12
COC(=O)Cc1ccc2c(c1)[nH]/c(=N\C(=O)c1ccnc(-c3cccnc3)c1)n2CC(C)(C)O	IC50	7

The reported value for `COc1ccccc1-c1cc(C(=O)/N=c2\[nH]c3ccccc3n2[C@H]2CCCC[C@@H]2O)ccn1` in terms of IC50 is 14

The reported value for `COc1ccccc1-c1cc(C(=O)/N=c2\[nH]c3ccccc3n2[C@@H]2CC[C@H](O)[C@H](O)C2)ccn1` in terms of IC50 is 3

###

# experimentalSystem: EGFR del19 T790M C797S protein in Ba/F3 cells (Homo sapiens, UniProt P00533, C797S/DEL746-750/T790M)
# experiment: pEGFR assay (AlphaScreen Surefire, EGFR Tyr1068 phosphorylation)
metricName: log10 of IC50 (log10 of the value in nM)
In plain terms, each number is the log10 of measured IC50 in nM.

Examples with answers:
molecule	metricName	numericValue
COc1ccncc1-c1cc(C(=O)/N=c2\[nH]c3ccccc3n2[C@H]2CC[C@@H](O)CC2)cc(C#N)n1	log10 of IC50	0.85
CC(C)(O)Cn1/c(=N/C(=O)c2ccnc(-c3ccsc3)c2)[nH]c2ccccc21	log10 of IC50	1.38

The reported value for `Cn1cnc2c(-c3cc(C(=O)/N=c4\[nH]c5ccccc5n4[C@H]4CC[C@@H](O)CC4)ccn3)cccc21` in terms of log10 of IC50 is 1.18

The reported value for `Cn1ncc2c(-c3cc(C(=O)/N=c4\[nH]c5ccccc5n4CC(C)(C)O)ccn3)cccc21` in terms of log10 of IC50 is 1.04

The reported value for `Cn1cc(-c2cc(C(=O)/N=c3\[nH]c4ccccc4n3C3CCC3)ccn2)cn1` in terms of log10 of IC50 is 1.57

The reported value for `Cc1c(-c2cc(C(=O)/N=c3\[nH]c4ccccc4n3CC(C)(C)O)ccn2)cnn1C` in terms of log10 of IC50 is 0.85

###

# experimentalSystem: EGFR del19 T790M C797S protein in Ba/F3 cells (Homo sapiens, UniProt P00533, C797S/DEL746-750/T790M)
# experiment: pEGFR assay (AlphaScreen Surefire, EGFR Tyr1068 phosphorylation)
Catalogue of molecules with associated IC50
Express the result in nM but write the number alone.

smilesStr	unitAbbrev	IC50
COCCN1CCC(c2ccc3c(c2)[nH]/c(=N\C(=O)c2ccnc(-c4cnn(C)c4)c2)n3CC(C)(C)O)CC1	nM	3
CCc1ccc2[nH]/c(=N\C(=O)c3ccnc(-c4cccnc4)c3)n(CC(C)(C)O)c2c1	nM	21
Cn1cc(-c2cc(C(=O)/N=c3\[nH]c4ccc(F)cc4n3CC(C)(C)O)ccn2)cn1	nM	85
COC[C@H]1CCCN1Cc1ccc2c(c1)[nH]/c(=N\C(=O)c1ccnc(-c3ccccc3OC)c1)n2[C@H]1CC[C@@H](O)CC1	nM	4
COc1ccccc1-c1cc(C(=O)/N=c2\[nH]c3ccccc3n2[C@H]2CCCC[C@H]2O)ccn1	nM	23

The reported value for `Cn1cc(-c2cc(C(=O)/N=c3\[nH]c4ccccc4n3[C@@H]3CCCC[C@H]3O)ccn2)cn1` in terms of IC50 is 9

The reported value for `O=C(/N=c1\[nH]c2ccccc2n1[C@H]1CC[C@@H](O)CC1)c1ccnc(-c2ccccc2F)c1` in terms of IC50 is 2

The reported value for `Cc1cc(C(=O)/N=c2\[nH]c3cc(CN4CCOCC4)ccc3n2[C@H]2CCC[C@H](O)C2)cc(-c2cnn(C)c2)n1` in terms of IC50 is 14

###

# experimentalSystem: EGFR (d746-750 T790M C797S) (Homo sapiens (Human), UniProt P00533, C797S/DEL746-750/T790M)
# Sequence (P00533 other isoform, or with tags, fused parts or gaps T790M/C797S/del 1-694/del 746-750 limits assumed): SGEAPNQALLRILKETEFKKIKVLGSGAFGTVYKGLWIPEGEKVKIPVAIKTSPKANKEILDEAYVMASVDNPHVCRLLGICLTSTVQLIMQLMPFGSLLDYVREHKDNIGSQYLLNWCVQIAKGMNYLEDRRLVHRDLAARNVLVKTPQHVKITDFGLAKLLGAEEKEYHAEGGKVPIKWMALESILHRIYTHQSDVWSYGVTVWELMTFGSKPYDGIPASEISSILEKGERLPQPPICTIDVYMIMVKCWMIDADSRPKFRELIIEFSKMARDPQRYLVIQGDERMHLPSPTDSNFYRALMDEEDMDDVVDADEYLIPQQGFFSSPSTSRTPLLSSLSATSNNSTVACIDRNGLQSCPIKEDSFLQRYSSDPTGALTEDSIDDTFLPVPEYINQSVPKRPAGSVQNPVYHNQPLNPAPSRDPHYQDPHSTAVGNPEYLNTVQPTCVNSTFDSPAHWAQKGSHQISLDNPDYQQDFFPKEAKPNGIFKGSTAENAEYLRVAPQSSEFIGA
# experiment: Biochemical EGFR inhibition assay (TR-FRET, poly-GT substrate), EGFR d746-750 T790M C797S
# testSettings: 100 μM ATP
metricName: log10(IC50) (log10 of the value in nM)
In plain terms, each number is the log10 of measured IC50 in nM.

compound	numericValue
CN1CCC(c2ccc3c(c2)[nH]/c(=N\C(=O)c2ccnc(-c4cnn(C)c4)c2)n3CC(C)(C)O)CC1=O (centres unmarked) [I-035]	0.75
Cn1cc(-c2cc(C(=O)/N=c3\[nH]c4cc(C5CCCOC5)ccc4n3CC(C)(C)O)ccn2)cn1 (centres unmarked) [I-053]	0.94
CC(C)Cn1/c(=N/C(=O)c2ccnc(-c3cnn(C)c3)c2)[nH]c2ccccc21 [I-012]	1.02

The reported value for COc1ccncc1-c1cc(C(=O)/N=c2\[nH]c3cc(C4CCN(C)CC4)ccc3n2CC(C)(C)O)ccn1 [I-028] in terms of log10(IC50) is 0.38

The reported value for CC(C)(O)Cn1/c(=N/C(=O)c2ccnc(-c3cnn4ccccc34)c2)[nH]c2ccccc21 [I-023] in terms of log10(IC50) is 0.89

The reported value for Cn1cc(-c2cc(C(=O)/N=c3\[nH]c4ccccc4n3[C@H]3CC[C@H](O)C3)ccn2)cn1 [I-013] in terms of log10(IC50) is 1.26

The reported value for CN(C)Cc1ccc2c(c1)[nH]/c(=N\C(=O)c1ccnc(-c3cnn(C)c3)c1)n2CC(C)(C)O [I-029] in terms of log10(IC50) is 1.86

The reported value for Cn1cc(-c2cc(C(=O)/N=c3\[nH]c4ccccc4n3[C@H]3CC[C@H](O)CC3)ccn2)cn1 [I-036] in terms of log10(IC50) is 0.60
